- Tested on: MS2 coat protein
- assay procedure: apparent KD of MS2 coat protein; designed switch direction (-1 OFF switch, 1 ON switch): 1; higher = weaker reporter binding
- run conditions: input ligand: FMN 200 uM
Catalogue of apparent KD of MS2 coat protein readings, one per entry.
value kind: apparent KD of MS2 coat protein (nM)

1) GCGAAAUGAUGUGACAUGAGGAUCACCCAUGUAACCUCAUGUAAGGAUAUCGGAAAAAAAAAAACCGAGAAGGUAUGGUCACGC [AK SSNG3-V2-27.1] (Eterna round: R96, puzzle: Same State NG 3); 124
2) CCGGAUAAUGGAGGAUAUGGAGCCUUAUUGGCUCCAGAAGGCUAACAUGAGGAUCACCCAUGUUUUCCGGCGGUCAAUAGACCG [Eli NG1ss - 63] (Eterna round: R96, puzzle: Same State NG 1); 10
3) AGCAGAGAAAUAGGAUAUGGCUGAGACAUGACGGCGGUACAUGAGGAUCACCCAUGUCCGCAAAGCCAGAAGGGUUUUGAAUGU [Ticecexe] (Eterna round: R96, puzzle: Same State NG 2); 13.7
4) CUGAGCAGUCAAGGAUAUCACGUCGUUUAGACGUGAGAAGGUGAUUAAUACAUGAGGAUCACCCAUGUAAUACAUGAAGCUCAG [SSNG1/11-A3] (Eterna round: R96, puzzle: Same State NG 1); 20.9
5) GCUAGAAUUAAUGCUAACAUGAGGAUCACCCAUGUAUGUUGGCAGGAUAUCGUUUGCUUUGCAAACGAGAAGGGCCAUACUAGC [JL SSNG3 1.09] (Eterna round: R96, puzzle: Same State NG 3); 20

Reference for the values: the supplement of paper PMC9170038
